Exercise: for every item that follows, state its recorded self-splicing fitness (ln).
assay: self-splicing fitness, log relative to wild type (ln ratio); higher = more splicing; Tetrahymena group I intron in knt gene, E. coli kanamycin selection, DiMSum; sequences stand for … in CUCUCU…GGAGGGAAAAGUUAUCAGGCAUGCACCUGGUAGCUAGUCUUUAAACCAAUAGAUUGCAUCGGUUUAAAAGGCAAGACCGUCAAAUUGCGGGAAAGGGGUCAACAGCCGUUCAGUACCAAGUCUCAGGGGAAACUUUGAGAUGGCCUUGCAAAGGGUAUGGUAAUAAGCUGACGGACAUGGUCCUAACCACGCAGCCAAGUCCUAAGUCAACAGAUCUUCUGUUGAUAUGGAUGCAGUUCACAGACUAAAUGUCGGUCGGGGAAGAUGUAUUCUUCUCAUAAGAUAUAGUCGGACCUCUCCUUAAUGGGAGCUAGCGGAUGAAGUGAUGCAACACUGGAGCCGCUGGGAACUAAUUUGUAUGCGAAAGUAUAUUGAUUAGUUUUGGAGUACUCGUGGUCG; settings: 30 °C;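 further: selection with 25 µg/mL kanamycin versus none on LB agar overnight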
Numbers only.

Check out these entries, answers already filled in.
{"columns": ["sequenceCode", "self-splicing fitness (ln)"],
 "data": [
  ["CGCGAGCAAUAUUACGCGUU", -3.07],
  ["GAUGAGCAAUAUUACGUCUC", -2.96]
]}

The following sequences each have a reported value; give each one's self-splicing fitness (ln).
1. CGGGAGCAAUAUUACGUGCA
2. CGGUAGCAAUAUUACGGUUC

-3.02
-2.96

---

Field: self-splicing fitness (ln). Provide a value for each of the sequences that follow.
assay: self-splicing fitness, log relative to wild type (ln ratio); higher = more splicing; Tetrahymena group I intron in knt gene, E. coli kanamycin selection, DiMSum; sequences stand for … in CUCUCU…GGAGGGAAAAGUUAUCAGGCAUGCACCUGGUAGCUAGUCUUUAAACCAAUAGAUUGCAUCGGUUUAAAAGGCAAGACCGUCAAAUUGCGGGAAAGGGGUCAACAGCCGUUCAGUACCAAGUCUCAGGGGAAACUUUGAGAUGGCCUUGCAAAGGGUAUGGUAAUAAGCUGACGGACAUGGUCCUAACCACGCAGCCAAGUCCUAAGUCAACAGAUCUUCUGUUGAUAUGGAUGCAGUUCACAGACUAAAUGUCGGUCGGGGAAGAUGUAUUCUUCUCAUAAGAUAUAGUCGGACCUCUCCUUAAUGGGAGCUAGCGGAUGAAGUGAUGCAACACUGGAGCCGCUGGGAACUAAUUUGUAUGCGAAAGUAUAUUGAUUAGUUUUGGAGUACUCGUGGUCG; details: 37 °C
One number for each entry.

Example sequences with recorded self-splicing fitness (ln):
{"columns": ["sequenceCode", "reportedResult"],
 "data": [
  ["CCGCAGCAAUAUUACGCGGG", -3.74],
  ["CACCAGCAAUAUUACGCGAC", -2.89],
  ["UCUGAGCAAUAUUACGGUAA", -2.24]
]}

Attention now turns to another entry.
Name the reported self-splicing fitness (ln) value associated with the sequence UGUAAGCAAUAUUACGGGUU -2

---

experiment: self-splicing fitness, log relative to wild type (ln ratio); higher = more splicing; Tetrahymena group I intron in knt gene, E. coli kanamycin selection, DiMSum; sequences stand for … in CUCUCU…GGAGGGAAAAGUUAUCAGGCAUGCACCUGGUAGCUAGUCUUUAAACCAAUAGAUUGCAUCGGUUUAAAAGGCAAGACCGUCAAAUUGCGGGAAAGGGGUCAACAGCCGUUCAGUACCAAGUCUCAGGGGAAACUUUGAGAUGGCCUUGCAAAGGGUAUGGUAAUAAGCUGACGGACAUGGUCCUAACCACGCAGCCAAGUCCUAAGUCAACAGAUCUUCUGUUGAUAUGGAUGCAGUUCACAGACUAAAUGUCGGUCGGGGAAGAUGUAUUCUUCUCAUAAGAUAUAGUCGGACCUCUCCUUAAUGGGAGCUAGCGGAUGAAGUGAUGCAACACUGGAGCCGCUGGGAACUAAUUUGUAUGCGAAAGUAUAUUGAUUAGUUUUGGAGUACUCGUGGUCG; conditions: 30 °C
measureName: self-splicing fitness (ln)

Use the examples below as a reference point.
{"columns": ["sequenceCode", "self-splicing fitness (ln)"],
 "data": [
  ["UCACAGCAAUAUUACGCGAC", -3.43],
  ["AACAAGCAAUAUUACGCGUG", -1.35],
  ["CUUGAGCAAUAUUACGUGGA", -2.88],
  ["GAAAAGCAAUAUUACGGGCU", -1.37],
  ["AAUUAGCAAUAUUACGCGGU", -3.63],
  ["GCCAAGCAAUAUUACGCGCA", -0.985],
  ["CAGCAGCAAUAUUACGCCAC", -4.15],
  ["AGCAAGCAAUAUUACGCAUU", -2.57]
]}

Please report self-splicing fitness (ln) for every entry that follows.
1. AACGAGCAAUAUUACGGAUC
2. GACGAGCAAUAUUACGAUGC
3. GCCAAGCAAUAUUACGAGCA
4. UAUUAGCAAUAUUACGGCUA
5. CGUAAGCAAUAUUACGUCCG
6. GCUGAGCAAUAUUACGAUUU

1. -2.26
2. -3.82
3. -1.82
4. -0.404
5. -0.78
6. -1.04

All values here come from the supplement of paper PMC7877785.
